src = patent US20240059769A1

The following binders are listed with their measured IC50 [pM], STAT5 phosphorylation inhibition in MUTZ5 cells values.
- target.or.system: hTSLP-His (human, UniProt Q969D9 29-159, limits assumed)
- experiment: cell-based or functional assay
metric: IC50 [pM], STAT5 phosphorylation inhibition in MUTZ5 cells

{"columns": ["binder", "meas.value"],
 "data": [
  ["BDG38.091 (antibody, V domains shown, IgG1) VH: QMQLVESGGGVVQPGRSLTLSCAASGFEFRTYGMHWVRQAPGKGLEWLGVIWYDGSNTHYADSVKGRFTITRDNSKNTLNLQMNSLRVEDTAVYYCVRAPQWYLTAEAFDLWGQGTMVTVSS VL: SYILTQPPSVSVAPGETATITCGGNLIGSRLVHWYQQKPGQAPVLVIYDDSDRPSRIPERFSGSNIGNTATLTISDVEAGDEADYYCQVWDHYSNHYVFGGGTKLTVL", "0.507 pM"],
  ["BDG38.127 (antibody, V domains shown, IgG1) VH: QMQLVESGGGVVQPGRSLTLSCAASGFEFRTYGMHWVRQAPGKGLEWVGVIWYDGSATHYADSVKGRFTITRDNSKNTLNLQMNSLRAEDTAVYYCARAPQWYLTAEAFDLWGQGTMVTVSS VL: SYILTQPPSVSVAPGETATITCGGNLIGAKLVHWYQQKPGQAPVLVIYDDSDRPSRIPERFSGSNIGNTATLTISDVEAGDEADYYCQVWDYYSDTYVFGGGTKLTVL", "0.143 pM"]
]}
